Exercise: for every item that follows, state its recorded HPLC retention time (min) Condition 1.
experimental_details: Hydrophobicity by relative elution time from a C18 HPLC column
Assay type: physicochemical
experimental_conditions: acetonitrile / ammonium acetate buffer pH 6.4 with 5 mM TBAP gradient, 0.8 mL/min, column temperature 35° C.
Write the number in min without appending the unit.

Asked: Requested read-out: HPLC retention time (min) Condition 1. Entry: CCC(=O)Oc1ccc2nc3c(cc2c1)Cn1c-3cc2c(c1=O)COC(=O)C2(CC)OC(=O)CC (stereo not drawn)
Given back: 19.8

Asked: Using the record for CCC1(OC(=O)c2ccccc2)C(=O)OCc2c1cc1n(c2=O)Cc2cc3cc(OC(=O)c4ccccc4)ccc3nc2-1 (stereo not drawn) , report its HPLC retention time (min) Condition 1.
Given back: 22.9

Asked: Item CCC1(OC(=O)COC)C(=O)OCc2c1cc1n(c2=O)Cc2cc3cc(OC(=O)COC)ccc3nc2-1 (stereo not drawn) has what recorded HPLC retention time (min) Condition 1?
Given back: 14.1

---

Tested on: MX-1 mammary tumor cells
experimental_details: Cytotoxic activity on MX-1 mammary tumor cells in culture
experimental_conditions: read-out: Cytotoxicity on MX-1, IC50; MX-1 mammary tumor cells in culture; drug itself
Please provide measured IC50 for the entries that follow.
Your answer should be a plain number; it is taken to be in µM.

Asked: Need IC50, item CCC1(OC(=O)CN)C(=O)OCc2c1cc1n(c2=O)Cc2cc3cc(OC(=O)CN)ccc3nc2-1 (centres unmarked)
Given back: 242

Asked: Which IC50 value is on record for CCC(=O)Oc1ccc2nc3c(cc2c1)Cn1c-3cc2c(c1=O)COC(=O)C2(CC)OC(=O)CC (centres unmarked) ?
Given back: 45

Asked: Can you look up the measured IC50 of CCc1c2c(nc3ccc(OC(=O)CCCC(C)CC)cc13)-c1cc3c(c(=O)n1C2)COC(=O)[C@@]3(CC)OC(=O)CCCC(C)CC (some centres unmarked) for me?
Given back: 295

Asked: What does the record list as IC50 for CCCCCC(=O)Oc1ccc2nc3c(cc2c1)Cn1c-3cc2c(c1=O)COC(=O)C2(CC)OC(=O)CCCCC (centres unmarked) ?
Given back: 4

Asked: Could you tell me which IC50 is on file for COC1=C2C[C@@H](C)C[C@H](OC)[C@H](O)[C@@H](C)/C=C(\C)[C@H](OC(N)=O)[C@@H](OC)/C=C\C=C(/C)C(=O)NC(=CC1=O)C2=O [Geldanamycin, reference compound] ?
Given back: 0.5

Asked: Fill blank: measured IC50 of the compound CCC1(OC(=O)c2ccccc2)C(=O)OCc2c1cc1n(c2=O)Cc2cc3cc(OC(=O)c4ccccc4)ccc3nc2-1 (centres unmarked) is ____.
Given back: 740

Asked: Given CCC1(OC(=O)CNC(=O)OC(C)(C)C)C(=O)OCc2c1cc1n(c2=O)Cc2cc3cc(OC(=O)CNC(=O)OC(C)(C)C)ccc3nc2-1 (centres unmarked) , state its recorded IC50.
Given back: 221

Asked: Name the recorded IC50 for `CCC(=O)Oc1ccc2nc3c(c(CC)c2c1)Cn1c-3cc2c(c1=O)COC(=O)[C@@]2(CC)OC(=O)CC` .
Given back: 28

This collection of values is drawn from patent US20180318473A1.
